biological target: T1, human LTBR on cells (human, UniProt P36941 31-435); test: FACS CHO-huLTBR, 0.73 µg/ml
T1 construct: also called recombinant human LTBR CHO cells; CHO-K1 cells overexpressing human LTBR
READOUT: MFI

BINDER	OBSERVED_VALUE
P1AE9459 (antibody, human IgG1, kappa, L234A L235A, V domains shown, human IgG1 PG LALA; from transgenic rabbit immunization) VH: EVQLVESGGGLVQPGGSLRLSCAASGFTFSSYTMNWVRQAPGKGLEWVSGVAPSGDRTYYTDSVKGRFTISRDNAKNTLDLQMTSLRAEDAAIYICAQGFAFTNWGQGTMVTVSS VL: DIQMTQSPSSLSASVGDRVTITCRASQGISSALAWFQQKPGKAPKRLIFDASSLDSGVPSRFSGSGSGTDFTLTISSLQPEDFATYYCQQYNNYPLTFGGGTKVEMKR	83500 MFI
P1AE1873 (CBE11) (antibody, human IgG1, kappa, L234A L235A, V domains shown) VH: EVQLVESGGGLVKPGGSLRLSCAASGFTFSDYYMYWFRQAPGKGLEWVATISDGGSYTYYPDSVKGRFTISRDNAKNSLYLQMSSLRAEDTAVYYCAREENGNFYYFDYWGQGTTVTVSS VL: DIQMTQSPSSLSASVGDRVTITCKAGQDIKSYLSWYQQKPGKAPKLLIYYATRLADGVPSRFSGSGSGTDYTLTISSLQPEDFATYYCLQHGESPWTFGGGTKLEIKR	27200 MFI
P1AF0079 (antibody, human IgG1, kappa, L234A L235A, V domains shown, human IgG1 PG LALA; from transgenic rabbit immunization; also called LTBR (0079)) VH: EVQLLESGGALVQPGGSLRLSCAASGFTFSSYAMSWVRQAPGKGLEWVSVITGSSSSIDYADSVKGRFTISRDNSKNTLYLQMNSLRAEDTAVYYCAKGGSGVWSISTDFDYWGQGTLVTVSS VL: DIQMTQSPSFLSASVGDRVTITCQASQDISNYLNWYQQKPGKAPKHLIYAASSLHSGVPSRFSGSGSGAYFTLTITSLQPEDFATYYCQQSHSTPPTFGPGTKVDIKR	55300 MFI
P1AE9457 (antibody, human IgG1, kappa, L234A L235A, V domains shown, human IgG1 PG LALA; from transgenic rabbit immunization; also called LTBR (9457)) VH: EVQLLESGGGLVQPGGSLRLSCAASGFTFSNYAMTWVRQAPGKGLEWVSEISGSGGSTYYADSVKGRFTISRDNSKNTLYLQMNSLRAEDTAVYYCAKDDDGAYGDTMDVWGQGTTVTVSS VL: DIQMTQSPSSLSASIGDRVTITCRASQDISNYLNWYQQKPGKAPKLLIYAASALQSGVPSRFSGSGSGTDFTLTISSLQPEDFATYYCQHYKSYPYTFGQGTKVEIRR	80700 MFI
P1AF0080 (antibody, human IgG1, kappa, L234A L235A, V domains shown, human IgG1 PG LALA; from transgenic rabbit immunization; also called LTBR (0080)) VH: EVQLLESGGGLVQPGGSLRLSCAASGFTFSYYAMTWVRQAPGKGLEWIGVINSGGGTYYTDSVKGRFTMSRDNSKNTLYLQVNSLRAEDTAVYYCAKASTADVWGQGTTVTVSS VL: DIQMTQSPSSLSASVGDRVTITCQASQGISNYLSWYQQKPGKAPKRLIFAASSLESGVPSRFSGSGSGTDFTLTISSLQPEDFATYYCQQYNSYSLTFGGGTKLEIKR	55500 MFI
